Data origin, for the record: paper PMC5540273

tested on: GRK3; construct: gene ADRBK2;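 note: kd values determined as follow-up on hits from a single-replicate KINOMEscan panel screen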
pKd: −log10 of the molar value.
REPORTED PROPERTY: pKd

Just so you know, measured pKd for O=C(Nc1ccc2c(c1)OCO2)NC1CCN(c2ccnc(Nc3ccc(F)cc3)n2)C1 (stereo not shown) came out at < 5.00

---

tested on: PCTK1; construct: gene CDK16; conditions: concentration: 1 μM, replicates: in singlicate; n = 1
Consider the cut-off 2%. If the recorded %Inh is strictly smaller, the label is satisfied; if not, the label is not satisfied.

[[record]]
molecule = "Cc1ccccc1-n1cnc2c(N)ncnc21"
class_name = "satisfied"

[[record]]
molecule = "Cc1ccc(C(=O)Nc2ccc(Nc3ccnc4cc(-c5ccccn5)ccc34)cc2O)cc1.Cl"
class_name = "satisfied"

[[record]]
molecule = "COc1ccc(C2=C(Nc3cccc(C(=O)O)c3)C(=O)NC2=O)cc1"
class_name = "satisfied"

[[record]]
molecule = "Cc1ccc(-c2cc(-c3c[nH]nc3-c3ccccn3)ccn2)cc1"
class_name = "satisfied"

[[record]]
molecule = "CCn1c(-c2ccccn2)nc2cnccc21"
class_name = "not satisfied"


stdin: A record lists Cc1cc(NCC(c2ccccc2)c2ccccc2)nc(NCc2ccc(C(F)(F)F)cc2)n1 . Is its %Inh below 2%?
stdout: satisfied

stdin: A record lists NC(=O)c1nnc2ccccc2c1N . Is its %Inh below 2%?
stdout: not satisfied

stdin: A record lists Fc1cccc(COc2nnc(-c3ccc4c(c3)CCO4)o2)c1 . Is its %Inh below 2%?
stdout: not satisfied

stdin: A record lists Cc1cccc(-c2nc(Nc3cccc(C(N)=O)c3)c3ccccc3n2)n1 . Is its %Inh below 2%?
stdout: satisfied

stdin: A record lists COc1cccc(NC(=O)NC2CCN(c3ccnc(Nc4ccc(F)cc4)n3)C2)c1 (stereo not shown) . Is its %Inh below 2%?
stdout: satisfied

stdin: A record lists COc1cc2nccc(Nc3ccc(NC(=O)c4ccc(C)cc4)c(O)c3)c2cc1OC.Cl . Is its %Inh below 2%?
stdout: not satisfied

stdin: A record lists C[C@@H]1CCCCN1c1cc(-c2ccc3c(N)n[nH]c3c2)nc(N)n1 . Is its %Inh below 2%?
stdout: not satisfied

stdin: A record lists CCCc1ccc(S(=O)(=O)NC2CCN(c3ccnc(Nc4ccc(F)cc4)n3)C2)cc1 (stereo not shown) . Is its %Inh below 2%?
stdout: satisfied

---

# key: entry, value: %Inh
test system: PRKD1; details: concentration: 1 μM, replicates: in singlicate; n = 1
Report as a plain number; the unit % is understood.

Just so you know, measured %Inh for O=C(Nc1n[nH]c2cc(-c3cccc(F)c3F)ccc12)C1CC1 [SB-733894] came out at 0

Just so you know, measured %Inh for COC(=O)c1c(-c2ccccc2)c2cc(C(=O)O)ccc2c(=O)n1Cc1ccccc1 came out at 14

Just so you know, measured %Inh for CS(=O)(=O)c1ccc(-c2nc3n(c2-c2ccncc2)CCC3)cc1 [SKF-105942] came out at 3

Just so you know, measured %Inh for CC(C)(C)c1ccc(C(=O)Nc2cn3cc(Cl)ccc3n2)cc1 came out at 0

Just so you know, measured %Inh for COc1cccc(-c2cc(-c3c[nH]nc3-c3ccccn3)ccn2)c1 [GW680338] came out at 62

Just so you know, measured %Inh for Cc1cc(NCC(c2ccccc2)c2ccccc2)nc(NCc2ccc(C(F)(F)F)cc2)n1 [GW497681] came out at 0

Just so you know, measured %Inh for CN1C(=O)C(Nc2ccc(Cl)c(C(=O)O)c2)=C(c2ccc(Cl)cc2)C1=O [SB-404290] came out at 0

Just so you know, measured %Inh for Cc1c(Cn2ccn3c(=O)cc(N4CCOCC4)nc23)cccc1C(F)(F)F [GSK2289044] came out at 6

Just so you know, measured %Inh for O=C(Nc1ccc2c(c1)OCO2)NC1CCN(c2ccnc(Nc3ccc(F)cc3)n2)C1 (stereo not drawn) [GSK1379724] came out at 16

---

system: PRKCD; conditions: concentration: 1 μM, replicates: in singlicate; n = 1
# key: entry, value: %Inh
Report as a plain number; the unit % is understood.

A selection of reference data follows.
[[record]]
molecule = "Cc1cc(NCC(c2ccccc2)c2ccccc2)nc(NCc2ccc(C(F)(F)F)cc2)n1"
test_system = "PRKCD"
reported_property = "%Inh"
test_value = 0

[[record]]
molecule = "Cc1c(Cn2ccn3c(=O)cc(N4CCOCC4)nc23)cccc1C(F)(F)F"
test_system = "PRKCD"
reported_property = "%Inh"
test_value = 0

[[record]]
molecule = "Cc1cc(-c2ccc3c(c2)CC[C@@H](N[C@@H](C)c2ccccc2)C3)cnc1N.Cl"
test_system = "PRKCD"
reported_property = "%Inh"
test_value = 7

[[record]]
molecule = "Cn1ccc2ncnc(Oc3ccc(NC(=O)Nc4ccccc4)cc3)c21"
test_system = "PRKCD"
reported_property = "%Inh"
test_value = 7

[[record]]
molecule = "Cc1ccc(-c2cc(-c3c[nH]nc3-c3ccccn3)ccn2)cc1"
test_system = "PRKCD"
reported_property = "%Inh"
test_value = 0

[[record]]
molecule = "O=C(Nc1ccccc1)Nc1cccc(Oc2ccc3nccn3n2)c1"
test_system = "PRKCD"
reported_property = "%Inh"
test_value = 16

[[record]]
molecule = "CCCc1ccc(S(=O)(=O)NC2CCN(c3ccnc(Nc4ccc(F)cc4)n3)C2)cc1 (stereo not drawn)"
test_system = "PRKCD"
reported_property = "%Inh"
test_value = 0

[[record]]
molecule = "CC(C)(C)c1ccc(C(=O)Nc2cn3cc(Cl)ccc3n2)cc1"
test_system = "PRKCD"
reported_property = "%Inh"
test_value = 4


Just so you know, measured %Inh for COc1ccc(Nc2nccc(NCCNC(=O)Nc3ccccc3F)n2)cc1 came out at 0

Just so you know, measured %Inh for Cc1cccc(-c2nc(Nc3ccc4[nH]ncc4c3)c3ccccc3n2)n1 came out at 11

Just so you know, measured %Inh for COc1ccccc1-c1ccc2c(NC(=O)C3CC3)n[nH]c2n1 came out at 0

Just so you know, measured %Inh for O=S(=O)(c1ccc(-c2ccnc3[nH]ccc23)cc1)N1CCCC1 came out at 0

Just so you know, measured %Inh for Cl.NC(=O)c1cccc(Nc2nccc(Nc3ccc(Oc4cccc(Cl)c4)c(Cl)c3)n2)c1 came out at 27

Just so you know, measured %Inh for COc1cccc(NC(=O)NC2CCN(c3ccnc(Nc4ccc(F)cc4)n3)C2)c1 (stereo not drawn) came out at 0

Just so you know, measured %Inh for Nc1nc(-c2nccs2)c(-c2ccnc3ccccc23)s1 came out at 1

---

system: NEK10; details: concentration: 1 μM, replicates: in singlicate; n = 1
Consider the cut-off 3%. If the recorded %Inh is strictly smaller, the label is fulfilled; if not, the label is not fulfilled.

[[record]]
compound = "O=S(=O)(c1ccc(-c2ccnc3[nH]ccc23)cc1)N1CCCC1"
class_name = "not fulfilled"

[[record]]
compound = "C[C@@H]1CCCCN1c1cc(-c2ccc3c(N)n[nH]c3c2)nc(N)n1"
class_name = "fulfilled"

[[record]]
compound = "COc1cc(Nc2nccc(N3CCC(NC(=O)Nc4cc(C)ccc4C)C3)n2)cc(OC)c1OC (centres unmarked)"
class_name = "not fulfilled"

[[record]]
compound = "COC(=O)c1c(-c2ccccc2)c2cc(C(=O)O)ccc2c(=O)n1Cc1ccccc1"
class_name = "not fulfilled"

[[record]]
compound = "NC(=O)c1nnc2ccccc2c1N"
class_name = "not fulfilled"


stdin: A record lists Cn1ccc2ncnc(Oc3ccc(NC(=O)Nc4ccccc4)cc3)c21 . Is its %Inh below 3%?
stdout: not fulfilled

stdin: A record lists Cc1cc(N2Cc3ccccc3C2)nc(Nc2ccc(S(=O)(=O)N3CCOCC3)cc2)n1.Cl . Is its %Inh below 3%?
stdout: fulfilled

---

test system: BRSK2; conditions: concentration: 1 μM, replicates: in singlicate; n = 1
REPORTED PROPERTY: %Inh (%)
Report as a plain number; the unit % is understood.

A selection of reference data follows.
[[record]]
compound = "O=C(Nc1n[nH]c2cc(-c3cccc(F)c3F)ccc12)C1CC1 [SB-733894]"
test_value = 58

[[record]]
compound = "CS(=O)(=O)c1ccc(-c2c(-c3ncn[nH]3)sc(N3CCOCC3)c2C#N)cc1"
test_value = 32

[[record]]
compound = "O=c1cc(N2CCOCC2)nc2n(Cc3cccc(Cl)c3Cl)ccn12 [GSK2286295]"
test_value = 0

[[record]]
compound = "Clc1cc(Cl)cc(Nc2ccnc(Nc3cc(Cl)cc(Cl)c3)n2)c1 [GSK175726]"
test_value = 0

[[record]]
compound = "Cl.O=C(Nc1cccc(-c2nn3ncccc3c2-c2ccnc(Nc3cccnc3)n2)c1)c1c(F)cccc1F [GSK312879]"
test_value = 0

[[record]]
compound = "Cc1ccc(NC(=O)Nc2cc(C(C)(C)C)nn2-c2ccccc2)cc1 [GSK1014915]"
test_value = 0


Just so you know, measured %Inh for Cc1nnc(-c2ccc3occ(-c4ccc(S(C)=O)cc4)c3c2)[nH]1 (stereo not drawn) came out at 0

Just so you know, measured %Inh for COc1ccc(C2=C(Nc3cccc(C(=O)O)c3)C(=O)NC2=O)cc1 [SB-390765] came out at 0

Just so you know, measured %Inh for Cn1cncc1-c1ccc2ncnc(Nc3ccc(OCc4ccccc4)cc3)c2c1 [GW320571] came out at 0
